Cited source for all entries: the supplement of paper PMC6555819

system: PPARg homodimer (NR concentration 180 nM); test: PBM binding z-score (relative to random genomic background probes); higher = stronger binding; sequences stand for … in GC…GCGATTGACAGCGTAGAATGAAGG
Assay endpoint: PBM binding z-score
Answers are plain numbers.

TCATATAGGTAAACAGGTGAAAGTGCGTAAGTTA; 1.33

Report PBM binding z-score for each item below.
1. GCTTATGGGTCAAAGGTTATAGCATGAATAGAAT
2. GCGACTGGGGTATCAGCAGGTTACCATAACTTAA

[2.17, 0.313]

Look up PBM binding z-score for the entries below, preserving their order.
1. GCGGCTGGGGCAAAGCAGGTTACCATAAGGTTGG
2. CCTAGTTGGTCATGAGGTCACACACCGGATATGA
3. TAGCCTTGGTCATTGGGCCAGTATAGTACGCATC
4. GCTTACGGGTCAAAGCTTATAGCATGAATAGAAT
5. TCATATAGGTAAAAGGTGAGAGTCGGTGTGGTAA
6. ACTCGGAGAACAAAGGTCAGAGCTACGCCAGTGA

1. -0.191
2. 4.56
3. -0.625
4. 1.56
5. 1.91
6. 1.94

Batch: PBM binding z-score for all items listed.
1. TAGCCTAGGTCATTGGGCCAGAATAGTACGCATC
2. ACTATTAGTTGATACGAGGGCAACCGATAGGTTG
3. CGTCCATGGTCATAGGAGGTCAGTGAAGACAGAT
4. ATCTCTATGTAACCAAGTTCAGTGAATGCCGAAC
5. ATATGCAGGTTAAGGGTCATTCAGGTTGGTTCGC
6. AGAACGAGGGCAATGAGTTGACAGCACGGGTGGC

1: 1.41; 2: 0.764; 3: 2.09; 4: 0.121; 5: 2.9; 6: -0.106

# per-item lookup of PBM binding z-score; items listed below
1. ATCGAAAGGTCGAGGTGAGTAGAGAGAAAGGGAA
2. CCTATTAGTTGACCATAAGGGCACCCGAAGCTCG

1. 1.76
2. 1.88
